# credit: patent US12692238B2

# Tested on: kochia (Bassia scoparia)
# ASSAY: Test A preemergence, kochia
# Type: in vivo
# RECORDED CONDITIONS: 31 g ai/ha, 0 to 100 scale, 10 days
Recorded Plant response rating, Kochia, one value per entry.

TEST SMILES	Plant response rating, Kochia
CC(=O)OCOc1c(C)nn(C)c(=O)c1-c1c2ccccc2c(Br)c2ccccc12	20
CC(=O)OCOc1c(C)nn(C)c(=O)c1-c1c2cc(F)ccc2cc2c(C)cc(C)cc12	0
Cc1ccc2ccccc2c1-c1c(OCOC(=O)C(C)C)c(Cl)nn(C)c1=O	10
Cc1ccc2cc3ccc(F)cc3c(-c3c(OCOC(=O)OC(C)C)c(C)nn(C)c3=O)c2c1	90

###

Recorded Plant response rating, Wheat, one value per entry.
# System: wheat (Triticum aestivum)
# ASSAY: Test A preemergence, wheat
# Format: in vivo
# RECORDED CONDITIONS: 125 g ai/ha, 0 to 100 scale, 10 days

TEST SMILES	Plant response rating, Wheat
COC(=O)OCOc1c(Cl)nn(C)c(=O)c1-c1c2cc(C)ccc2cc2ccc(C)cc12	0
Cc1ccc2cc3ccc(F)cc3c(-c3c(OCOC(=O)OC(C)C)c(C)nn(C)c3=O)c2c1	0
Cc1ccc2cc3ccc(F)cc3c(-c3c(OCOC(=O)N(C)C)c(C)nn(C)c3=O)c2c1	0
Cc1ccc2cc3ccc(C)cc3c(-c3c(OCOC(=O)C(C)(C)C)c(Cl)nn(C)c3=O)c2c1	0
COC(=O)OCOc1c(C)nn(C)c(=O)c1-c1c2cc(C)ccc2cc2ccc(F)cc12	0
Cc1cc(C)c2cc3ccccc3c(-c3c(OCOC(=O)C(C)(C)C)c(Cl)nn(C)c3=O)c2c1	0
Cc1ccc2cc3ccc(C)cc3c(-c3c(OCOC(=O)N(C)C)c(Cl)nn(C)c3=O)c2c1	0
Cc1ccc2cc3ccc(F)cc3c(-c3c(OCOC(=O)C(C)(C)C)c(C)nn(C)c3=O)c2c1	0
Cn1nc(Cl)c(OCOC(=O)C(C)(C)C)c(-c2c3ccccc3cc3ccccc23)c1=O	0

###

Recorded Plant response rating, Horseweed, one value per entry.
# Tested on: horseweed (Erigeron canadensis)
# ASSAY: Test A postemergence, horseweed
# Assay type: in vivo
# RECORDED CONDITIONS: 31 g ai/ha, postemergence; 0 to 100 scale (0 no effect, 100 complete control), 10 days
# Description: […]
READOUT NAME: Plant response rating, Horseweed

TEST SMILES	OBS VALUE
COC(=O)OCOc1c(C)nn(C)c(=O)c1-c1c2cc(C)ccc2cc2ccc(F)cc12	100
COC(=O)OCOc1c(Cl)nn(C)c(=O)c1-c1c2cc(C)ccc2cc2ccc(C)cc12	100
Cn1nc(Cl)c(OCOC(=O)C(C)(C)C)c(-c2c3ccccc3cc3ccccc23)c1=O	100
Cc1ccc2cc3ccc(C)cc3c(-c3c(OCOC(=O)C(C)(C)C)c(Cl)nn(C)c3=O)c2c1	100
Cc1ccc2cc3ccc(F)cc3c(-c3c(OCOC(=O)N(C)C)c(C)nn(C)c3=O)c2c1	10
Cc1ccc2cc3ccc(F)cc3c(-c3c(OCOC(=O)C(C)(C)C)c(C)nn(C)c3=O)c2c1	100
Cc1cc(C)c2cc3ccccc3c(-c3c(OCOC(=O)C(C)(C)C)c(Cl)nn(C)c3=O)c2c1	90
Cc1ccc2cc3ccc(F)cc3c(-c3c(OCOC(=O)OC(C)C)c(C)nn(C)c3=O)c2c1	100

###

# System: redroot pigweed (Amaranthus retroflexus)
# ASSAY: Test A preemergence, redroot pigweed
# Assay type: in vivo
# RECORDED CONDITIONS: 125 g ai/ha, 0 to 100 scale, 10 days
# Excerpt: […]
READOUT NAME: Plant response rating, Pigweed, Redroot

TEST SMILES	SYSTEM NAME	READOUT NAME	OBS VALUE
Cc1ccc2ccccc2c1-c1c(OCOC(=O)C(C)(C)C)c(Cl)nn(C)c1=O	redroot pigweed (Amaranthus retroflexus)	Plant response rating, Pigweed, Redroot	100
Cc1ccc2ccc(F)cc2c1-c1c(OCOC(=O)C(C)(C)C)c(Cl)nn(C)c1=O	redroot pigweed (Amaranthus retroflexus)	Plant response rating, Pigweed, Redroot	100
CC(=O)OCOc1c(C)nn(C)c(=O)c1-c1c2cc(C)ccc2cc2ccc(F)cc12	redroot pigweed (Amaranthus retroflexus)	Plant response rating, Pigweed, Redroot	100

###

# Tested on: sedge, umbrella (small-flower umbrella sedge, Cyperus difformis)
# ASSAY: Test B flooded paddy test, sedge, umbrella
# Assay type: in vivo
# RECORDED CONDITIONS: Cyperus difformis; 250 g ai/ha, Flood; visually evaluated after 10 to 14 days; read-out: Plant response rating, Sedge, Umbrella (0 to 100 scale where 0 is no effect and 100 is complete control)
Recorded pest or weed control at 250 g/ha, one value per entry.

COMPOUND	pest or weed control at 250 g/ha
COC(=O)OCOc1c(C)nn(C)c(=O)c1-c1c2cc(C)ccc2cc2ccc(F)cc12 [Compound 15]	90%
COC(=O)OCOc1c(Cl)nn(C)c(=O)c1-c1c2cc(C)ccc2cc2ccc(C)cc12 [Compound 8]	95%
CC(=O)OCOc1c(Cl)nn(C)c(=O)c1-c1c2ccccc2cc2ccccc12 [Compound 10]	95%
CC(=O)OCOc1c(C)nn(C)c(=O)c1-c1c2cc(C)ccc2cc2ccc(F)cc12 [Compound 24]	80%
CC(=O)OCOc1c(Cl)nn(C)c(=O)c1-c1c(C)ccc2ccccc12 [Compound 5]	85%
Cc1ccc2cc3ccc(C)cc3c(-c3c(OCOC(=O)C(C)(C)C)c(Cl)nn(C)c3=O)c2c1 [Compound 9]	100%
CC(=O)OCOc1c(C)nn(C)c(=O)c1-c1c(Br)sc2ccc(F)cc12 [Compound 2]	45%
CC(=O)OCOc1c(Cl)nn(C)c(=O)c1-c1c2ccccc2c(Cl)c2ccccc12 [Compound 11]	95%
CC(=O)OCOc1c(Cl)nn(C)c(=O)c1-c1c(C)ccc2ccc(C)cc12 [Compound 3]	98%
CC(=O)OCOc1c(Cl)nn(C)c(=O)c1-c1c(C)sc2cccc(Cl)c12 [Compound 1]	0%

###

# Tested on: horseweed (Erigeron canadensis)
# ASSAY: Test A postemergence, horseweed
# Type: in vivo
# RECORDED CONDITIONS: Postemergence, 125 g ai/ha; 0 to 100 scale, 10 days
Recorded Plant response rating, Horseweed, one value per entry.

COMPOUND	SYSTEM NAME	Plant response rating, Horseweed
Cc1ccc2cc3ccc(F)cc3c(-c3c(OCOC(=O)OC(C)C)c(C)nn(C)c3=O)c2c1 [Compound 17]	horseweed (Erigeron canadensis)	100
Cc1ccc2cc3ccc(F)cc3c(-c3c(OCOC(=O)C(C)(C)C)c(C)nn(C)c3=O)c2c1 [Compound 21]	horseweed (Erigeron canadensis)	100
Cc1ccc2cc3ccc(C)cc3c(-c3c(OCOC(=O)C(C)(C)C)c(Cl)nn(C)c3=O)c2c1 [Compound 9]	horseweed (Erigeron canadensis)	100
COC(=O)OCOc1c(C)nn(C)c(=O)c1-c1c2cc(C)ccc2cc2ccc(F)cc12 [Compound 15]	horseweed (Erigeron canadensis)	100
Cc1ccc2cc3ccc(C)cc3c(-c3c(OCOC(=O)N(C)C)c(Cl)nn(C)c3=O)c2c1 [Compound 18]	horseweed (Erigeron canadensis)	20
COC(=O)OCOc1c(Cl)nn(C)c(=O)c1-c1c2cc(C)ccc2cc2ccc(C)cc12 [Compound 8]	horseweed (Erigeron canadensis)	100
Cn1nc(Cl)c(OCOC(=O)C(C)(C)C)c(-c2c3ccccc3cc3ccccc23)c1=O [Compound 19]	horseweed (Erigeron canadensis)	90
Cc1ccc2cc3ccc(F)cc3c(-c3c(OCOC(=O)N(C)C)c(C)nn(C)c3=O)c2c1 [Compound 16]	horseweed (Erigeron canadensis)	10
Cc1cc(C)c2cc3ccccc3c(-c3c(OCOC(=O)C(C)(C)C)c(Cl)nn(C)c3=O)c2c1 [Compound 20]	horseweed (Erigeron canadensis)	80

###

# Tested on: ragweed (common ragweed, Ambrosia artemisiifolia)
# ASSAY: Test A postemergence, ragweed
# Assay type: in vivo
# RECORDED CONDITIONS: Ambrosia artemisiifolia, post-emergence, 240 h; 31 g ai/ha, postemergence; 0 to 100 scale (0 no effect, 100 complete control), 10 days; read-out: Plant response rating, Ragweed
# Source text: […]
READOUT NAME: pest or weed control at 31 g/ha

TEST SMILES	READOUT NAME	OBS VALUE
CC(=O)OCOc1c(Cl)nn(C)c(=O)c1-c1c(C)ccc2ccccc12	pest or weed control at 31 g/ha	80%
COC(=O)OCOc1c(C)nn(C)c(=O)c1-c1c2cc(C)ccc2cc2ccc(F)cc12	pest or weed control at 31 g/ha	100%
CC(=O)OCOc1c(Cl)nn(C)c(=O)c1-c1c(C)ccc2ccc(C)cc12	pest or weed control at 31 g/ha	90%
CC(=O)OCOc1c(Cl)nn(C)c(=O)c1-c1c2ccccc2c(Cl)c2ccccc12	pest or weed control at 31 g/ha	100%
CC(=O)OCOc1c(C)nn(C)c(=O)c1-c1c2cc(C)ccc2cc2ccc(F)cc12	pest or weed control at 31 g/ha	80%
Cc1ccc2cc3ccc(C)cc3c(-c3c(OCOC(=O)C(C)(C)C)c(Cl)nn(C)c3=O)c2c1	pest or weed control at 31 g/ha	80%
